Data origin: patent US20230295118A1

molecular target: CDK4 (Homo sapiens, UniProt P11802); construct: endogenous in cells; assay: CDK4 degradation (DC50, Dmax); type: cell-based
Sequence (P11802 whole entry): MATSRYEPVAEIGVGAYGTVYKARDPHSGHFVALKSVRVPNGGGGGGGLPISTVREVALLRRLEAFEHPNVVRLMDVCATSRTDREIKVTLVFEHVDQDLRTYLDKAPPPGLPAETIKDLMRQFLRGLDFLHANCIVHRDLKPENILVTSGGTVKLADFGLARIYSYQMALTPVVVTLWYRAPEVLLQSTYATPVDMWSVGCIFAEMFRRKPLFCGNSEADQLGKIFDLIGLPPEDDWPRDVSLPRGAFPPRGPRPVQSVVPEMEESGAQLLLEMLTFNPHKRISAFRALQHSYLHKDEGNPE
DC50: recorded values
MEASURED ATTRIBUTE: DC50

>>> assay_value("CC(=O)c1c(C)c2cnc(Nc3ccc(N4CCN(C(=O)N5CCC(CN6CCC(c7ccc8c(c7)CN(C7CCC(=O)NC7=O)C8=O)CC6)CC5)CC4)cn3)nc2n(C2CCCC2)c1=O (stereo not drawn) [Compound 18]")
"> 200 nM"
>>> assay_value("CC(=O)c1c(C)c2cnc(Nc3ccc(N4CCN(C5CCN(c6ccc(N7CCC(=O)NC7=O)cc6)CC5)CC4)cn3)nc2n(C2CCCC2)c1=O [Compound 113]")
"50 to 200 nM"
>>> assay_value("Cc1nc2c(F)cc(-c3nc(Nc4ccc(CC5CCN(C(=O)C6CN(c7ccc8c(c7)C(=O)N(C7CCC(=O)NC7=O)C8=O)C6)CC5)cn4)ncc3F)cc2n1C(C)C (stereo not drawn) [Compound 143]")
"50 to 200 nM"
>>> assay_value("Cc1nc2c(F)cc(-c3nc(Nc4ccc(CN5CCN(c6cccc7c6C(=O)N(C6CCC(=O)NC6=O)C7=O)CC5)cn4)ncc3F)cc2n1C(C)C (stereo not drawn) [Compound 101]")
"50 to 200 nM"
>>> assay_value("Cc1nc2c(F)cc(-c3nc(Nc4ccc(CN5CCN(CC6CN(c7ccc(NC8CCC(=O)NC8=O)cc7)C6)CC5)cn4)ncc3F)cc2n1C(C)C (stereo not drawn) [Compound 134]")
"< 50 nM"
>>> assay_value("CC(=O)c1c(C)c2cnc(Nc3ccc(N4CCN(CC5CN(c6ccc(N7CCC(=O)NC7=O)cc6)C5)CC4)cn3)nc2n(C2CCCC2)c1=O [Compound 111]")
"< 50 nM"

----------
DC50: recorded values
target: CDK4 (Homo sapiens); construct: endogenous in cells; experiment: CDK4 degradation (DC50, Dmax); assay type: cell-based
MEASURED ATTRIBUTE: DC50

>>> assay_value("CC(=O)c1c(C)c2cnc(Nc3ccc(N4CCN(C(=O)N5CCN(CCN6CCN(c7ccc8c(c7)CN(C7CCC(=O)NC7=O)C8=O)CC6)CC5)CC4)cn3)nc2n(C2CCCC2)c1=O (centres unmarked)")
"> 200 nM"
>>> assay_value("CC(=O)c1c(C)c2cnc(Nc3ccc(N4CCN(C(=O)C5CN(c6ccc(NC7CCC(=O)NC7=O)cc6)C5)CC4)cn3)nc2n(C2CCCC2)c1=O (centres unmarked)")
"50 to 200 nM"
>>> assay_value("Cc1nc2c(F)cc(-c3nc(Nc4ccc(CC5CCN(CC6CN(c7ccc(C(=O)NC8CCC(=O)NC8=O)cc7)C6)CC5)cn4)ncc3F)cc2n1C(C)C (centres unmarked)")
"50 to 200 nM"
>>> assay_value("CC(=O)c1c(C)c2cnc(Nc3ccc(N4CCN(C(=O)N5CCC(CN6CCN(c7ccc8c(c7)CN(C7CCC(=O)NC7=O)C8=O)CC6)CC5)CC4)cn3)nc2n(C2CCCC2)c1=O (centres unmarked)")
"> 200 nM"
>>> assay_value("CC(=O)c1c(C)c2cnc(Nc3ccc(N4CCN(C(=O)C5CCN(c6ccc(C(=O)NC7CCC(=O)NC7=O)cc6)CC5)CC4)cn3)nc2n(C2CCCC2)c1=O (centres unmarked)")
"50 to 200 nM"

----------
target: CDK6 (Homo sapiens, UniProt Q00534); construct: endogenous in cells; test: CDK6 degradation (DC50, Dmax); format: cell-based
Sequence (Q00534 whole entry): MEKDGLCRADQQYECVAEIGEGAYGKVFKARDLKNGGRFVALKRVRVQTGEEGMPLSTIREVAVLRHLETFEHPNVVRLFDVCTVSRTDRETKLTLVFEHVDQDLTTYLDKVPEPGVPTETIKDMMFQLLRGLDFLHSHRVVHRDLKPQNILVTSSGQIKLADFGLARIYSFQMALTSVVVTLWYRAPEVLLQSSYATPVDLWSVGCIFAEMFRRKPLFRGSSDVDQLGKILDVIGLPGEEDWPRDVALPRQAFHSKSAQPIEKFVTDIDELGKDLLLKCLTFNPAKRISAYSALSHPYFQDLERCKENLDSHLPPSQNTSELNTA
Dmax: recorded values
MEASURED ATTRIBUTE: Dmax

>>> assay_value("CC(=O)c1c(C)c2cnc(Nc3ccc(N4CCN(CCCCN(C)c5ccc6c(c5)CN(C5CCC(=O)NC5=O)C6=O)CC4)cn3)nc2n(C2CCCC2)c1=O (centres unmarked) [Compound 60]")
"> 60%"
>>> assay_value("Cc1nc2c(F)cc(-c3nc(Nc4ccc(CC5CCN(C6CCN(c7ccc(NC8CCC(=O)NC8=O)cc7)CC6)CC5)cn4)ncc3F)cc2n1C(C)C (centres unmarked) [Compound 172]")
"> 80%"
>>> assay_value("CC(=O)c1c(C)c2cnc(Nc3ccc(N4CCN(C(=O)N5CCC(N6CCC(c7ccc8c(c7)C(=O)N(C7CCC(=O)NC7=O)C8=O)CC6)CC5)CC4)cn3)nc2n(C2CCCC2)c1=O (centres unmarked) [Compound 7]")
"> 60%"
>>> assay_value("CC(=O)c1c(C)c2cnc(Nc3ccc(N4CCN(CCN5CCC(c6ccc7c(c6)C(=O)N(C6CCC(=O)NC6=O)C7=O)CC5)CC4)cn3)nc2n(C2CCCC2)c1=O (centres unmarked) [Compound 71]")
"> 60%"
>>> assay_value("Cc1nc2c(F)cc(-c3nc(Nc4ccc(CN5CCN(C(=O)C6CN(c7ccc(C(=O)NC8CCC(=O)NC8=O)cc7)C6)CC5)cn4)ncc3F)cc2n1C(C)C (centres unmarked) [Compound 137]")
"> 60%"

----------
molecular target: CDK4 (Homo sapiens); construct: endogenous in cells; experiment: CDK4 degradation (DC50, Dmax); assay type: cell-based
MEASURED ATTRIBUTE: Dmax

>>> assay_value("Cc1nc2c(F)cc(-c3nc(Nc4ccc(CC5CCN(CC6CN(c7ccc8c(c7)CN(C7CCC(=O)NC7=O)C8=O)C6)CC5)cn4)ncc3F)cc2n1C(C)C (centres unmarked)")
"> 80%"
>>> assay_value("Cc1nc2c(F)cc(-c3nc(Nc4ccc(CN5CCN(CC6CCN(c7ccc(N8CCC(=O)NC8=O)cc7)CC6)CC5)cn4)ncc3F)cc2n1C(C)C")
"> 80%"
>>> assay_value("Cc1nc2c(F)cc(-c3nc(Nc4ccc(CN5CCN(C6CN(c7ccc8c(c7)CN(C7CCC(=O)NC7=O)C8=O)C6)CC5)cn4)ncc3F)cc2n1C(C)C (centres unmarked)")
"> 80%"
>>> assay_value("CC(=O)c1c(C)c2cnc(Nc3ccc(N4CCN(C(=O)N5CCN(C6CCN(c7ccc8c(c7)C(=O)N(C7CCC(=O)NC7=O)C8=O)CC6)CC5)CC4)cn3)nc2n(C2CCCC2)c1=O (centres unmarked)")
"> 60%"
>>> assay_value("CC(=O)c1c(C)c2cnc(Nc3ccc(N4CCN(CCC5CCN(c6ccc7c(c6)C(=O)N(C6CCC(=O)NC6=O)C7=O)CC5)CC4)cn3)nc2n(C2CCCC2)c1=O (centres unmarked)")
"> 60%"

----------
target: CDK6 (Homo sapiens, UniProt Q00534); construct: endogenous in cells; assay: CDK6 degradation (DC50, Dmax); type: cell-based
Dmax: recorded values
MEASURED ATTRIBUTE: Dmax

>>> assay_value("CC(=O)c1c(C)c2cnc(Nc3ccc(N4CCN(CC5CCN(C(=O)N6CCC(N7CCN(c8ccc9c(c8)C(=O)N(C8CCC(=O)NC8=O)C9=O)CC7)CC6)CC5)CC4)cn3)nc2n(C2CCCC2)c1=O (centres unmarked)")
"> 60%"
>>> assay_value("CC(=O)c1c(C)c2cnc(Nc3ccc(N4CCN(C5CCN(C(=O)N6CCC(CCN7CCN(c8ccc9c(c8)C(=O)N(C8CCC(=O)NC8=O)C9=O)CC7)CC6)CC5)CC4)cn3)nc2n(C2CCCC2)c1=O (centres unmarked)")
"> 60%"
>>> assay_value("CC(=O)c1c(C)c2cnc(Nc3ccc(N4CCN(CCN5CCN(C(=O)Nc6ccc7c(c6)CN(C6CCC(=O)NC6=O)C7=O)CC5)CC4)cn3)nc2n(C2CCCC2)c1=O (centres unmarked)")
"> 60%"
>>> assay_value("CC(=O)c1c(C)c2cnc(Nc3ccc(N4CCN(C(=O)N5CCC(CN6CCN(c7ccc8c(c7)C(=O)N(C7CCC(=O)NC7=O)C8=O)CC6)CC5)CC4)cn3)nc2n(C2CCCC2)c1=O (centres unmarked)")
"> 60%"
>>> assay_value("CC(=O)c1c(C)c2cnc(Nc3ccc(C4CCN(CC5CN(c6ccc(NC7CCC(=O)NC7=O)cc6)C5)CC4)cn3)nc2n(C2CCCC2)c1=O (centres unmarked)")
"> 80%"
>>> assay_value("CC(=O)c1c(C)c2cnc(Nc3ccc(N4CCN(CC5CCN(C(=O)N6CCC(CCN7CCN(c8ccc9c(c8)C(=O)N(C8CCC(=O)NC8=O)C9=O)CC7)CC6)CC5)CC4)cn3)nc2n(C2CCCC2)c1=O (centres unmarked)")
"> 50%"
>>> assay_value("CC(=O)c1c(C)c2cnc(Nc3ccc(N4CCN(C5CCN(c6ccc(N7CCC(=O)NC7=O)cc6)CC5)CC4)cn3)nc2n(C2CCCC2)c1=O")
"> 80%"
>>> assay_value("CC(=O)c1c(C)c2cnc(Nc3ccc(N4CCN(C(=O)N5CCN(CC6CCN(c7ccc8c(c7)C(=O)N(C7CCC(=O)NC7=O)C8=O)CC6)CC5)CC4)cn3)nc2n(C2CCCC2)c1=O (centres unmarked)")
"> 50%"
>>> assay_value("Cc1nc2c(F)cc(-c3nc(Nc4ccc(CN5CCN(CC6CN(c7ccc8c(c7)C(=O)N(C7CCC(=O)NC7=O)C8=O)C6)CC5)cn4)ncc3F)cc2n1C(C)C (centres unmarked)")
"> 80%"
>>> assay_value("Cc1nc2c(F)cc(-c3nc(Nc4ccc(CC5CCN(C(=O)C6CN(c7ccc(C(=O)NC8CCC(=O)NC8=O)cc7)C6)CC5)cn4)ncc3F)cc2n1C(C)C (centres unmarked)")
"> 60%"
>>> assay_value("CC(=O)c1c(C)c2cnc(Nc3ccc(C4CCN(C(=O)C5CN(c6ccc(NC7CCC(=O)NC7=O)cc6)C5)CC4)cn3)nc2n(C2CCCC2)c1=O (centres unmarked)")
"> 80%"
